Give Run 2 IC50 (nM), cell-based cAMP assay, SK-N-MC cells, 3 nM human α-CGRP for every item shown.
subject of test: human CGRP receptor (human CRLR / human RAMP1 heterodimer) (human, UniProt Q16602 23-461; O60894 27-148)
Sequence (Q16602 23-461 limits assumed, chain 1 of 2): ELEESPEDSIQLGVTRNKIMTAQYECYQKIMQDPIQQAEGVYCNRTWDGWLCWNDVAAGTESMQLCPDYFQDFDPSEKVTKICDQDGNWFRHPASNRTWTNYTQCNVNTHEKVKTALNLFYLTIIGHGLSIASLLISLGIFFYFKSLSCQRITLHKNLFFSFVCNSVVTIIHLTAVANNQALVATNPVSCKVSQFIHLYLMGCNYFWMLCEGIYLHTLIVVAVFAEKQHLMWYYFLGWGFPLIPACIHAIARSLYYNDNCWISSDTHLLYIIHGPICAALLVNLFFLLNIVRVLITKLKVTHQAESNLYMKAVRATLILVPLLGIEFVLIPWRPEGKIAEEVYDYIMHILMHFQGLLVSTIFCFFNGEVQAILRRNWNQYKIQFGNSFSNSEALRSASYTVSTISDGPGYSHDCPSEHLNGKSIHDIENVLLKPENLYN
Sequence (O60894 27-148 limits assumed, chain 2 of 2): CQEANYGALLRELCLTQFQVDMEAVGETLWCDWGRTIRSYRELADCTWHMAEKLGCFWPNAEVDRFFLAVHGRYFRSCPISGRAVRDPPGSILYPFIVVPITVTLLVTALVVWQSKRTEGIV
protocol details: cell-based or functional assay
Your reply should be a number followed by the unit it is expressed in.

// Run 2 IC50 (nM), cell-based cAMP assay, SK-N-MC cells, 3 nM human α-CGRP lookup, key: anti-CGRP receptor variant antibody 02, bivalent monoclonal antibody (antibody, human IgG1, lambda, N297G, V domains shown) VH: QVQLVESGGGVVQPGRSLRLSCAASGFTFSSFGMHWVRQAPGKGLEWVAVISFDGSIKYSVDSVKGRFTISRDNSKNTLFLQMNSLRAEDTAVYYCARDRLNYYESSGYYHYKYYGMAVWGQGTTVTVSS VL: QSVLTQPPSVSAAPGQKVTISCSGSRSNIGIKAVSWYQQLPGTAPKLLIYDNNKRPSGIPDRFSGSKSGTSATLGITGLQTGDEADYYCGTWDSRLSAVVFGGGTKLTVLG 0.13 nM

Another binder to check: anti-CGRP receptor variant antibody 07, bivalent monoclonal antibody (antibody, human IgG1, lambda, N297G, V domains shown) VH: QVQLVESGGGVVQPGRSLRLSCAASGFYFMTYGMHWVRQAPGKGLEWVAVISFDGSIKYSVDSVKGRFTISRDNSKNTLFLQMNSLRAEDTAVYYCARDRLNYYESSGYYHYKYYGMAVWGQGTTVTVSS VL: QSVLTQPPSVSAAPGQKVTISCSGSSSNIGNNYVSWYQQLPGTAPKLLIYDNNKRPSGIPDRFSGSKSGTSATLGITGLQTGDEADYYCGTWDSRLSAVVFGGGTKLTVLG 0.39 nM

// query: anti-CGRP receptor variant antibody 08, bivalent monoclonal antibody (antibody, human IgG1, lambda, N297G, V domains shown) VH: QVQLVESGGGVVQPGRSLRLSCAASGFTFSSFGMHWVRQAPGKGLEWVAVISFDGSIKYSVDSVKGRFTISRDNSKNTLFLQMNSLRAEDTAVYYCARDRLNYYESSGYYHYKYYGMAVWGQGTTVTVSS VL: QSVLTQPPSVSAAPGQKVTISCSGSYSNIGWWPVSWYQQLPGTAPKLLIYDNNKRPSGIPDRFSGSKSGTSATLGITGLQTGDEADYYCGTWDSRLSAVVFGGGTKLTVLG 0.31 nM
